From: patent US8653274B2

Biological target: amyloid deposits (Homo sapiens, UniProt P05067)
Sequence (P05067 672-711 limits assumed): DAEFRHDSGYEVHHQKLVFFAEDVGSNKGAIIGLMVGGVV
quantity.measured: pIC50
Notebook: values listed as pIC50 are -log10 of the concentration (mol/L).

Report measured pIC50; entry is `CNc1ccc(-c2cc3cc(O)ccc3o2)c(F)n1` 7.89
